# measuredTarget: T1, human NMI (N-myc Interacting protein), recombinant protein (human, UniProt Q13287 1-307, limits assumed)
# T1 construct: Gene ID: 9111; also called hNMI; antigen
# T1 sequence (looked up): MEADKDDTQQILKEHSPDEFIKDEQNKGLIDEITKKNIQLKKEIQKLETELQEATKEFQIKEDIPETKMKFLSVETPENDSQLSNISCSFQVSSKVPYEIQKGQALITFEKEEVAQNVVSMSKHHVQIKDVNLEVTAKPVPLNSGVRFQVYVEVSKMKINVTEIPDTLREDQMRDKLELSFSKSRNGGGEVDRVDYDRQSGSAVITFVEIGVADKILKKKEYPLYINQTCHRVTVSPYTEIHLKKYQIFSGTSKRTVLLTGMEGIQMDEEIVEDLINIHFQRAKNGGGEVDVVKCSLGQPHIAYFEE
# assay: sandwich ELISA; detection 94C4-1-biotin 1µg/mL; hNMI 195.313 pg/mL

# binder, OD450, OD450
data = [
    ("monoclonal antibody 240B10-1 (antibody, V domains shown, Rabbit monoclonal antibody) VH: QSLEESGGRLVTPGGSLTLTCTVSGIDLSSYTMGWVRQAPGKGLEYIGIISGGGRTYYASWAKGRFTISKTSSTTVDLKVTSLTTEDTATYFCARIYTLWGQGTLVTVSS VL: QVLTQTLASVSAAVGGTVTINCQSSQSVYNNDYLAWFQQKSGQPPKQLIHSASKLASGVPSRFKGSGSGTQFTLTINDVQCDDAATYYCLGGYDCYSADCNVFGGGTEVVVK", 0.212),
]
